Tested on: SW480
Assay: TCF/Wnt firefly luciferase reporter signal relative to plate median (fraction of plate median); higher = higher Wnt reporter signal
Conditions: 5 µM; treatment time 24 h; reporter: 7TFP
METRIC_NAME: TCF/Wnt firefly luciferase reporter signal
// print number alone

1) CC(=O)Nc1ccccc1: 0.975
2) C=CCSCC=C: 0.95
3) CCCCc1oc2ccccc2c1C(=O)c1cc(I)c(OCCN(CC)CC)c(I)c1: 1.04

Now consider a different compound.
Which TCF/Wnt firefly luciferase reporter signal is reported for this compound? COc1cc(OC)c(C(C)=O)c(O)c1C
0.885

----------
Tested on: SW480
Test: TCF/Wnt firefly luciferase reporter signal relative to plate median (fraction of plate median); higher = higher Wnt reporter signal
Conditions: 5 µM; treatment time 24 h; reporter: 7TFP
METRIC_NAME: TCF/Wnt firefly luciferase reporter signal
Give a plain numeric answer without units written out.

Reference set, count: 8
1. O=C1C=CC(=C(c2ccc(O)cc2)c2ccc(O)cc2)C=C1: 0.93
2. O=c1ccc2ccc(O)cc2o1: 0.935
3. Cc1cccc(Nc2ccccc2C(=O)O)c1C: 1.01
4. C[C@H]1C(=O)CC[C@@H]2[C@]1(C)CC[C@H]1[C@@]2(C)CC[C@@]2(C)[C@@H]3CC(C)(C)CC[C@]3(C)CC[C@]12C: 0.88
5. FC(F)(F)COCC(F)(F)F: 0.825
6. COc1ccccc1N1CCN(CCCNc2cc(=O)n(C)c(=O)n2C)CC1: 0.953
7. CCC(=O)O[C@]1(C(=O)CCl)[C@@H](C)C[C@H]2[C@@H]3CCC4=CC(=O)C=C[C@]4(C)[C@@]3(F)[C@@H](O)C[C@@]21C: 0.893
8. COc1c(-c2coc3cc4c(cc3c2=O)CC(OC(C)=O)C(C)(C)O4)ccc2c1C=CC(C)(C)O2 (stereo unspecified): 1.1

Item under review: CCOc1ccc(C(=O)c2cc(O)c(OC)c(OC)c2O)cc1 . Reported TCF/Wnt firefly luciferase reporter signal?
0.948

One more molecule: CC(=O)OCC(=O)[C@@]1(O)CC[C@H]2[C@@H]3CC[C@@H]4C[C@H](O)CC[C@]4(C)[C@H]3C(=O)C[C@@]21C
0.885

Repeat for the following molecule: COc1cc2c(cc1OC)-c1c(oc3cc(O)cc(O)c3c1=O)CO2
1.03

----------
Tested on: SW480
Experiment: cell viability (CellTiter-Glo) relative to plate median (fraction of plate median); higher = more viable cells
Details: 5 µM; treatment time 24 h; reporter: 7TFP
Listed below: cell viability values for each entry.
Please reply with the number alone, leaving off any unit.

1. OC1(c2ccc(Cl)c(C(F)(F)F)c2)CCN(CCCC(c2ccc(F)cc2)c2ccc(F)cc2)CC1: 0.994

Would you kindly share the measured cell viability for CCCN(CCC)CCc1cccc2c1CC(=O)N2 ?
1.01

Then this molecule: COc1ccc(-c2coc3c(OC)c(OC)cc(O)c3c2=O)cc1
0.995

Moving on to C1N2CN3CN1CN(C2)C3
0.978

Note, next up: C#C[C@]1(O)CC[C@H]2[C@@H]3CCC4=Cc5oncc5C[C@]4(C)[C@H]3CC[C@@]21C
1.01

----------
Tested on: DLD1
Test: TCF/Wnt firefly luciferase reporter signal relative to plate median (fraction of plate median); higher = higher Wnt reporter signal
Details: 5 µM; treatment time 24 h; reporter: 7TFP
METRIC_NAME: TCF/Wnt firefly luciferase reporter signal
// no unit string in output, number only

1. O=C(O)c1cc(-c2ccc(F)cc2F)ccc1O: 1.32
2. COC(=O)C1=CO[C@@H](O[C@@H]2O[C@H](CO)[C@@H](O)[C@H](O)[C@H]2O)[C@@H]2[C@@H](C)[C@@H](O)C[C@H]12: 1.01
3. CC[N+](CC)(CC)CCOc1cccc(OCC[N+](CC)(CC)CC)c1OCC[N+](CC)(CC)CC: 0.989
4. CC(=O)O[C@H]1CC[C@]2(C)[C@H]3CC[C@]4(C)C(=CC[C@@]5(C(=O)O)CCC(C)(C)C[C@H]54)[C@]3(C)CC[C@H]2C1(C)C [3-Acetylaleuritolic acid]: 0.879
5. CC(=O)OCC(COC(C)=O)OC(C)=O: 0.929

For the record CC(C)CC1NC(=O)C(NC(=O)c2ncccc2O)C(C)OC(=O)C(c2ccccc2)N(C)C(=O)C(C)NC(=O)C(C(C)C(C)C)N(C)C(=O)CN(C)C(=O)C2CCCN2C1=O (single isomer, unassigned; isomere) [Neoviridogrisein II (Isomere)] , what value of TCF/Wnt firefly luciferase reporter signal is listed for DLD1?
0.918

Try C[C@@H]1NC(=O)[C@H](Cc2ccccc2)NC1=O [cyclo(alanylphenylalanyl)] next.
0.987

Would you mind doing COCCCOc1cc(C[C@@H](C[C@H](NC(=O)OC(C)(C)C)[C@@H]2C[C@@H](C(C)C)C(=O)O2)C(C)C)ccc1OC [Borrelidin derivative (C30H49NO7)] as well?
0.963

----------
Entries and their measured cell viability follow.
Tested on: DLD1
Test: cell viability (CellTiter-Glo) relative to plate median (fraction of plate median); higher = more viable cells
Details: 5 µM; treatment time 24 h; reporter: 7TFP
The response must contain the number and no unit.

DLD1 / cell viability / CCC/C=C1\OC(=O)C2=C1CCC=C2 : value?
0.992

Moving on to O=c1cc(-c2ccc(O)cc2)oc2cc(O)cc(O)c12
0.982

Now the compound CC(=O)[C@H]1CC[C@H]2[C@@H]3CCC4=CC(=O)CC[C@]4(C)[C@H]3CC[C@]12C
1.01

----------
Test system: DLD1
Assay: cell viability (CellTiter-Glo) relative to plate median (fraction of plate median); higher = more viable cells
Conditions: 5 µM; treatment time 24 h; reporter: 7TFP
Catalogue of compounds with associated cell viability
Just the number.

1) COc1ccc2c(c1)OCC(Cc1ccc(O)c(OC)c1)C2=O (stereo unspecified): 0.99
2) CC(C)c1ncc(Cc2ccccc2)[nH]c1=O: 1.14
3) N=C(N)c1ccc(OCCCCCOc2ccc(C(=N)N)cc2)cc1: 0.93
4) COc1cc(OC)cc(OC)c1: 1.03
5) Cc1ccc(C)c(OCCCC(C)(C)C(=O)O)c1: 0.985

Enter reported cell viability observed with DLD1 for O=C(O)c1cc(-c2ccc(F)cc2F)ccc1O
0.973

Note, next up: CC(C)CCCC(C)C1CCC2C3=CCC4CC(O)CCC4(C)C3CCC21C (stereo unspecified)
1.05

Same for COc1cc(-c2coc3cc(O[C@@H]4O[C@H](CO)[C@@H](O)[C@H](O)[C@H]4O)c(OC)c(O)c3c2=O)cc(O)c1OC
1.1

Cool, now O=C(O)[C@@H](O)[C@H](O)[C@H](O)[C@@H](O)C(=O)O
0.971

Please answer likewise for CN1C(C(=O)Nc2ccccn2)=C(O)c2ccccc2S1(=O)=O
0.97

----------
Test system: DLD1
Test: cell viability (CellTiter-Glo) relative to plate median (fraction of plate median); higher = more viable cells
Conditions: 5 µM; treatment time 24 h; reporter: 7TFP
METRIC_NAME: cell viability

1) O=c1ccc2ccccc2o1: 0.985

State the recorded cell viability for this entry: Clc1ccc(C(c2ccccc2Cl)C(Cl)Cl)cc1 (centres undefined)
0.937

Entry COC(=O)[C@H]1[C@H]2C[C@H]3c4[nH]c5ccccc5c4CCN3C[C@@H]2CC[C@@H]1O please
0.988

Moving on to the next compound: COc1cc(-c2coc3cc(OC)c(OC)c(OC)c3c2=O)cc(OC)c1OC
1.04

----------
// reported cell viability for each item listed
System: SW480
Assay: cell viability (CellTiter-Glo) relative to plate median (fraction of plate median); higher = more viable cells
Conditions: 5 µM; treatment time 24 h; reporter: 7TFP
# print the numeric value only

Examples with their reported cell viability follow.
1. O=C(O)CCCC[C@@H]1CCSS1 (racemic): 0.986
2. CC(=O)OC1CCC23CC1(C)CCC2C(C)(C)CC3OC(C)=O (configuration not stated): 1.02
3. CC(=O)NCCc1ccccc1 [N-Acetyl-phenylethylamine]: 1.02
4. CC1=C(/C=C/C(C)=C/C=C/C(C)=C/C=C/C=C(C)/C=C/C=C(C)/C=C/C2=C(C)C(=O)[C@@H](O)CC2(C)C)C(C)(C)C[C@H](O)C1=O: 1
5. COc1ccc(-c2cc(=O)c3c(O)cc(O[C@H]4O[C@H](CO[C@@H]5O[C@@H](C)[C@H](O)[C@@H](O)[C@H]5O)[C@@H](O)[C@H](O)[C@H]4O)cc3o2)cc1: 0.979

Please state recorded cell viability (tested on SW480) of COC1=CC(=O)C(C(=O)c2ccccc2)=CC1=O
0.975

----------
// values below are reported cell viability
Test system: HCT116
Assay: cell viability (CellTiter-Glo) relative to plate median (fraction of plate median); higher = more viable cells
Settings: 5 µM; treatment time 24 h; reporter: TCF4/Wnt
API note: the answer field is a bare number with no unit suffix.

Here's what some known entries look like.
1) Clc1ccc(COC(Cn2ccnc2)c2ccc(Cl)cc2Cl)c(Cl)c1 (stereo unspecified): 1.01
2) CC(=O)Oc1cc(OC(C)=O)c2c(c1)O[C@H](c1ccc(OC(C)=O)c(OC(C)=O)c1)[C@H](OC(C)=O)C2: 0.972
3) CCN(CC)CCOC(=O)C(c1ccccc1)c1ccccc1: 0.972
4) Cc1c(C(=O)O)c(O)cc2c1C(=O)c1c(O)c([C@@H]3O[C@H](CO)[C@@H](O)[C@H](O)[C@H]3O)c(O)c(O)c1C2=O: 1.01
5) N[C@@H](CC(=O)N1CCn2c(nnc2C(F)(F)F)C1)Cc1cc(F)c(F)cc1F: 0.997

Returns the measured cell viability for the input compound. Input: C=C(C)[C@@H]1CC=C(CO)CC1
0.972

Queued: CCOC(=O)c1c(C)cc(O)cc1O
1.01

Can you handle CCn1cc(C(=O)O)c(=O)c2cnc(N3CCCC3)nc21 next?
1

Also Clc1ccccc1C(c1ccccc1)(c1ccccc1)n1ccnc1 , if possible.
1

Let us now turn to CCOC(=O)c1c(C)c(Cl)c(O)c(Cl)c1O
0.987

Request: CC[C@H]1OC(=O)[C@H](C)[C@@H](O[C@H]2C[C@@](C)(OC)[C@@H](O)[C@H](C)O2)[C@H](C)[C@@H](O[C@@H]2O[C@H](C)C[C@H](N(C)C)[C@H]2O)[C@](C)(O)C[C@@H](C)C(=O)[C@H](C)[C@@H](O)[C@]1(C)O
0.986
